species on record: Homo sapiens; test: Selectivity index, ratio of IC50 for binding affinity to BRD4 (1) (unknown origin) N-terminal bromodomain to IC50 for binding affinity to BRD9 (unknown origin) N-terminal bromodomain
Below, each entry is listed alongside its reported fold selectivity.
Please reply with the value in numeric form only.

Consider the reported fold selectivity for these molecules:
Cc1ccc(CNc2cnn(C)c(=O)c2Cl)cc1: 16
Cc1c(NCc2ccccc2-c2ccccc2)cnn(C)c1=O: 125

Could you now look at the following molecule, please?
Requested read-out: fold selectivity. Entry: "Cn1ncc(NCc2ccccc2)c(Cl)c1=O"
10

* * *

biological target: Bromodomain-containing protein 9 (Homo sapiens, UniProt Q9H8M2); experiment: Binding affinity to BRD9 (unknown origin) N-terminal bromodomain by TR-FRET assay
Below, each entry is listed alongside its reported pIC50.
Expect pIC50 as a plain number equal to -log10 of the molar concentration.

Cc1c(NCc2ccccc2N2CCCOCC2)cnn(C)c1=O: 7.00
Cc1c(NCc2ccccc2N2CCN(C)CC2)cnn(C)c1=O: 6.70
Cc1ccccc1CNc1cnn(C)c(=O)c1C: 6.40
Cc1c(NCc2ccccc2)cnn(C)c1=O: 5.90

Requested read-out: pIC50. Entry: "Cc1cccc(CNc2cnn(C)c(=O)c2Cl)c1"
5.60

Requested read-out: pIC50. Entry: "Cn1ncc(NCc2ccccc2)c(Cl)c1=O"
5.70

Requested read-out: pIC50. Entry: "Cc1c(NCc2ccccc2N2CCOCC2)cnn(C)c1=O"
7.00

Requested read-out: pIC50. Entry: "CNc1cnn(C)c(=O)c1Cl"
4.60

Requested read-out: pIC50. Entry: "Cc1c(NCc2ccccc2-c2ccccc2)cnn(C)c1=O"
7.00

* * *

target: Bromodomain-containing protein 4 (Homo sapiens); test: Binding affinity to human partial length BRD4 (1) (N44 to E168 residues) expressed in bacterial expression system by BROMOscan assay
readoutKind: Ki

Consider the reported Ki for these molecules:
C=CCc1c(NCc2ccccc2N2CCN(C)CC2)cnn(C)c1=O: > 10 µM
CC(C)c1c(NCc2ccccc2N2CCN(C)CC2)cnn(C)c1=O: > 10 µM
CC/C=C/c1c(NCc2ccccc2N2CCN(C)CC2)cnn(C)c1=O: > 10 µM
CCCc1c(NCc2ccccc2N2CCN(C)CC2)cnn(C)c1=O: > 10 µM
C/C=C/Cc1c(NCc2ccccc2N2CCN(C)CC2)cnn(C)c1=O: 3.98 µM

Requested read-out: Ki. Entry: "CCCCc1c(NCc2ccccc2N2CCN(C)CC2)cnn(C)c1=O"
> 31.6 µM

Requested read-out: Ki. Entry: "C=C[C@H](C)c1c(NCc2ccccc2N2CCN(C)CC2)cnn(C)c1=O"
> 10 µM

Requested read-out: Ki. Entry: "C=C[C@@H](C)c1c(NCc2ccccc2N2CCN(C)CC2)cnn(C)c1=O"
> 10 µM

Requested read-out: Ki. Entry: "CCCCCc1c(NCc2ccccc2N2CCN(C)CC2)cnn(C)c1=O"
1.58 µM

Requested read-out: Ki. Entry: "CCc1c(NCc2ccccc2N2CCN(C)CC2)cnn(C)c1=O"
7.94 µM

Requested read-out: Ki. Entry: "Cc1c(NCc2ccccc2N2CCN(C)CC2)cnn(C)c1=O"
25.1 µM

Requested read-out: Ki. Entry: "C=CCCc1c(NCc2ccccc2N2CCN(C)CC2)cnn(C)c1=O"
> 10 µM

Requested read-out: Ki. Entry: "C/C=C\Cc1c(NCc2ccccc2N2CCN(C)CC2)cnn(C)c1=O"
> 10 µM

* * *

assay: Chromatographic hydrophobicity index, logD of the compound at pH 7.4 by HPLC analysis; assay type: physicochemical; conditions: buffer
Assign 1 (yes) to entries whose chromatographic logD meets or exceeds 3; assign 0 (no) to the rest.

Please review the entries below; each comes with its answer.
C=C[C@H](C)c1c(NCc2ccccc2N2CCN(C)CC2)cnn(C)c1=O: 1 (yes)
CC(C)c1c(NCc2ccccc2N2CCN(C)CC2)cnn(C)c1=O: 1 (yes)
CCCc1c(NCc2ccccc2N2CCN(C)CC2)cnn(C)c1=O: 0 (no)
CCc1c(NCc2ccccc2N2CCN(C)CC2)cnn(C)c1=O: 0 (no)
Cn1ncc(NCc2ccccc2)c(Cl)c1=O: 1 (yes)
C=CCc1c(NCc2ccccc2N2CCN(C)CC2)cnn(C)c1=O: 0 (no)

With those in mind, consider the next compound.
State whether the measured chromatographic logD reaches 3, counting equality as reaching it, for "Cc1c(NCc2ccccc2N2CCNCC2)cnn(C)c1=O"
0 (no)

* * *

Below, each entry is listed alongside its reported pIC50.
molecular target: Bromodomain-containing protein 4 (Homo sapiens, UniProt O60885); experiment: Binding affinity to BRD4 (1) (unknown origin) N-terminal bromodomain by TR-FRET assay
Expect pIC50 as a plain number equal to -log10 of the molar concentration.

Consider the reported pIC50 for these compounds:
Cc1c(NCc2ccccc2N2CCCOCC2)cnn(C)c1=O: 4.90
Cc1c(NCc2ccccc2)cnn(C)c1=O: 4.60

Requested read-out: pIC50. Entry: "Cc1c(NCc2ccccc2N2CCOCC2)cnn(C)c1=O"
4.70

Requested read-out: pIC50. Entry: "Cc1c(NCc2ccccc2-c2ccccc2)cnn(C)c1=O"
4.90

Requested read-out: pIC50. Entry: "Cc1ccc(CNc2cnn(C)c(=O)c2Cl)cc1"
4.90

Requested read-out: pIC50. Entry: "Cc1ccccc1CNc1cnn(C)c(=O)c1C"
4.60

Requested read-out: pIC50. Entry: "Cc1c(NCc2ccccc2N2CCN(CCCN)CC2)cnn(C)c1=O"
4.80

Requested read-out: pIC50. Entry: "CNc1cnn(C)c(=O)c1Cl"
3.90

Requested read-out: pIC50. Entry: "Cc1c(Nc2cccc3c2CCN(C)C3)cnn(C)c1=O"
4.40

Requested read-out: pIC50. Entry: "Cc1cccc(CNc2cnn(C)c(=O)c2Cl)c1"
4.70

Requested read-out: pIC50. Entry: "Cn1ncc(NCc2ccccc2)c(Cl)c1=O"
4.70

* * *

Biological target: Bromodomain-containing protein 9 (Homo sapiens, UniProt Q9H8M2)
Sequence (Q9H8M2 whole entry): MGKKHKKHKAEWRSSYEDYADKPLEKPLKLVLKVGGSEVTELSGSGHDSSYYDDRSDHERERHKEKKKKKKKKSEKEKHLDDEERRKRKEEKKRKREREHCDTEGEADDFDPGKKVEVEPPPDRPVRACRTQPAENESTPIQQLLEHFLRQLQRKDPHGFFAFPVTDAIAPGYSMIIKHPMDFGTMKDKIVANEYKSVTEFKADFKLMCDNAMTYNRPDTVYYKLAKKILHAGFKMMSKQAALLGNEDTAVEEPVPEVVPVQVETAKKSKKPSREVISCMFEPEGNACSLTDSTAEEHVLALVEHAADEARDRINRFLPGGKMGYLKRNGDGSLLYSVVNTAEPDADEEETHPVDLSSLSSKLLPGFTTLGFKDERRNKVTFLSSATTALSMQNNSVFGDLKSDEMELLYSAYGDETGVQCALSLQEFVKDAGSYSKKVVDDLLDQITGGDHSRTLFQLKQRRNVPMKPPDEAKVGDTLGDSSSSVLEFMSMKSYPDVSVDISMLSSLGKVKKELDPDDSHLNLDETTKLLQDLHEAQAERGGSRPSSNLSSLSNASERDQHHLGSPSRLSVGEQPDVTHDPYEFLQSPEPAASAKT
Below, each entry is listed alongside its reported Ki.
// note: answer is a bare numeric in nM

Requested read-out: Ki. Entry: "C/C=C\Cc1c(NCc2ccccc2N2CCN(C)CC2)cnn(C)c1=O"
251

Requested read-out: Ki. Entry: "CCCCCc1c(NCc2ccccc2N2CCN(C)CC2)cnn(C)c1=O"
158

Requested read-out: Ki. Entry: "CCCCn1cc(-c2cccc(C(F)(F)F)c2)c2sc(C(=N)NC3CCS(=O)(=O)CC3)cc2c1=O"
10

Requested read-out: Ki. Entry: "CCCCc1c(NCc2ccccc2N2CCN(C)CC2)cnn(C)c1=O"
63.1

Requested read-out: Ki. Entry: "Cc1c(NCc2ccccc2N2CCN(C)CC2)cnn(C)c1=O"
39.8

* * *

target: Bromodomain-containing protein 4 (Homo sapiens, UniProt O60885); test: Binding affinity to human partial length BRD4 (1) (N44 to E168 residues) expressed in bacterial expression system by BROMOscan assay
pIC50: −log10 of the molar value.
readoutKind: pIC50

Requested read-out: pIC50. Entry: "CN1CCN(c2ccccc2CNc2cnn(C)c(=O)c2)CC1"
< 4.30

* * *

Entries with their measured pKi, system Bromodomain-containing protein 9 (Homo sapiens):
Expect pKi as a plain number equal to -log10 of the molar concentration.

Consider the reported pKi for these molecules:
CCCc1c(NCc2ccccc2N2CCN(C)CC2)cnn(C)c1=O: 6.90
C/C=C/Cc1c(NCc2ccccc2N2CCN(C)CC2)cnn(C)c1=O: 7.40
CCc1c(NCc2ccccc2N2CCN(C)CC2)cnn(C)c1=O: 7.10
C=C[C@@H](C)c1c(NCc2ccccc2N2CCN(C)CC2)cnn(C)c1=O: 6.60
C=CCCc1c(NCc2ccccc2N2CCN(C)CC2)cnn(C)c1=O: 6.40

Requested read-out: pKi. Entry: "CC(C)c1c(NCc2ccccc2N2CCN(C)CC2)cnn(C)c1=O"
6.50

Requested read-out: pKi. Entry: "Cc1c(Nc2cccc3c2CCN(C)C3)cnn(C)c1=O"
6.80

Requested read-out: pKi. Entry: "C=C[C@H](C)c1c(NCc2ccccc2N2CCN(C)CC2)cnn(C)c1=O"
6.50

Requested read-out: pKi. Entry: "C=CCc1c(NCc2ccccc2N2CCN(C)CC2)cnn(C)c1=O"
7.00

Requested read-out: pKi. Entry: "CCCCc1c(Nc2cccc3c2CCN(C)C3)cnn(C)c1=O"
7.10
